biological target: T1, RSV F ectodomain stabilized in the postfusion conformation (F ΔFP), subtype B (respiratory syncytial virus subtype B, UniProt P13843 26-109; P13843 147-524); assay: BLI (Octet), IgG on AHQ sensor, 100 nM antigen
T1 construct: extracellular domain; Trimer; also called Postfusion subtype B
Recorded endpoint: Kd (nM)
Response body: numeric value in nM, unit text excluded.

Worked cases, Kd given:
ADI-18999 (antibody, V domains shown, full-length IgG) VH: QVQLVQSGAEVKKPGSSVKVSCKASGGRFSSDAISWVRQAPGQGLEWMGGIIPIRGTPTYAQKFQGRVTIIADESTTTSYMEMSSLRSEDTAVYYCARPNYDILTGYNDAFDIWGQGTMVTVSS VL: QSVLTQPRSVSGSPGQSVTISCTGTSSDVGGYNYVSWYQQHPGKVPRLMIYDVSKRPSGAPDRFSGSKSGNTASLTISGLQAEDEADYYCCSYAGGLYVFGTGTKLTVL : 0.141
ADI-19000 (antibody, V domains shown, full-length IgG; also called Antibody Number 348) VH: EVQLVESGAEVKKPGASVKVSCKASGYTFTTYDINWVRQATGRGLEWMGWMTPDSGSTGYPQNFQGRVTMTRNTSISTAYMELSNLRSEDTAVYYCVQMDHCRSTSCSEGNWFDTWGQGTLVTVSS VL: QPGLTQPPSVSAAPRQRVTISCSGSSSNIGTNAVNWYQQLPGKAPKLLIYSDNLMPSGVSARFSGSKSGTSASLAISGLQSEDEADYYCAAWDDSLNVWVFGGGTKLTVL : 0.128
ADI-18992 (antibody, V domains shown, full-length IgG; also called Antibody Number 340) VH: QVQLVQSGAEVKKPGASVKVSCKASGYIFTGYFIHWVRQAPGQGLEWMGVINPRGGSTSYAQKFQGRVAVSRDTSTTTVYMELNSLRSEDTAVYYCARAPSHDEWVAISRNNDVVGFDAWGQGTLVTVSS VL: QSVLTQPPSVSGAPGQRVTISCTGGSSNIGADYDVHWYQQPPGTAPKLLIFANNNRPSGVPGRFSGSKSGTSASLAITGLQAEDEADYYCQSYDSSLSAWVFGGGTKLTVL : 0.907
ADI-18990 (antibody, V domains shown, full-length IgG) VH: QVQLQESGPGRVKPSQTLSLTCTVSGVSVTINDYYWTWLRQSPGKGLEWIGNIYNSGSTYQNPSLQSRVTMSVDTAKNHFSLKLTSVTAADTAVYYCARDLGTANNYYFGMDVWGLGTTVTVSS VL: DIVLTQSPATLSLSPGERATLSCRASQSVSTYLAWYQQKPGQAPRLLIYNGSNRVTGTPARFSGSGSGTDFTLTISSVEPEDFAVYYCQQRSNWPPYTFGQGTKVEIK : 0.252
ADI-19012 (antibody, V domains shown, full-length IgG; also called Antibody Number 360) VH: EVQLVESGPGLVKPSGTLSLTCAVSGDSIVGSDWWSWIRQPPGKGLEWIGDIYHGGTTSYNPSLKSRVTMSVDKSKNQFSLKLTSVTAADTAVYYCARLSGNCSGGSCYSPFDHWGQGTLVTVSS VL: DIQMTQSPSSLSASVGDRVTITCRASQTINGYLNWYQQRPGKAPKLLISAASSLQSGVPSRFRGSGYGTDFTLTISSLQPEDFATYFCQQSYNTVYTFGQGTKVDIK : 0.314

Record request: Kd value, item ADI-18989 (antibody, V domains shown, full-length IgG) VH: EVQLVESGGGLVQPGGSLRLSCAASGFSFNTYSMNWVRQAPGKGLEWLSFISSSSHTLYYADSVKGRFTVFRDNAKHSLFLQMNGLRDEDTAVYFCARSLGSGNYDNEDQTFYYYYGMDVWGQGTTVTVSS VL: ETTLTQSPLSLPVTPGEPASISCRSSQSLLFHSNGHNYLDWYLQKPGQSPQLLIHLGSNRASGVPDRFSGSGSGTDFTLKISRVEPEDVGVYYCMQALQTPYTFGQGTKVEIK
0.377

Record request: Kd value, item ADI-19013 (antibody, V domains shown, full-length IgG; also called Antibody Number 361) VH: QVQLVQSGAEVKKPGESLKISCKGSGYSFSSYWIGWVRQMPGKGLEWMGIIYPGDSDTRYSPSLQGQVTISGDKSISTAFLQWSSLKASDTAMYYCARPMTTQEGFDLWGQGTMVTVSS VL: DIRLTQSPSSVSASVGDRVTITCRASQGISDWLAWYQQKPGKAPKLLIYAASSLQSGVPSRFSGSGSGTDFTLTISSLQPEDFATYYCQQTNSFLPLTFGGGTKVDIK
0.583

Record request: Kd value, item ADI-19014 (antibody, V domains shown, full-length IgG; also called Antibody Number 362) VH: EVQLVESGPRLVKPSQTLSLTCTVYGGSISGGQNYYSWVRQPPGKGLEWIGYIFSSGTTYYKPSLKSRISISFDTSKNQFSLNLASVTAADTAVYFCARSADIDIVWGSSLYMPLWGQGTLVTVSS VL: EIVLTQSPGTLSLSPGQRATLSCRATHIVSNSYLAWYQQKPGQAPRLLIHGVSIRATGIPDRFSGSGSGTDFTLTISRLEPEDFAVYFCQQYGTSPWTFGQGTKLEIK
0.277

Record request: Kd value, item ADI-18980 (antibody, V domains shown, full-length IgG; also called Antibody Number 328) VH: QVQLVQSGAEVKKPGESLKISCKGFGYSFNSYWIAWVRQMPGKGLECMGIIYPGDSDTRYSPSFQGQVTISVDKSITTAYLQWSSLKVSDTAMYYCAKSNVGNTGWNYWGQGTLVTVSS VL: EIVLTQSPATLSLSPGERATLSCRASHSVATDLAWYQQKPGQAPRLLIYDASKRATDVPARFSGSGSGTDFTLTISSLEPEDVAVYYCQEVRNWPPCTFGQGTKVDIK
0.35

Record request: Kd value, item ADI-18981 (antibody, V domains shown, full-length IgG; also called Antibody Number 329) VH: EVQLQESGSRLVKPSQTLSLTCSVSGGSLNAGGYLWSWIRQPPGKGLEWVGYIYPSGTTYYNPSLQSRISISQDRSRNQFSLSVASVTAADTAVYYCARCGNEYGEVHPFDIWGQGTTVTVSS VL: EIVLTQSPGTLSLSPGERATLSCRGSPIVGNNYLAWYQQKPGQAPRLLIYAASIRATGIPDRFSGSGSGTDFTLTISRLEPEDFAVYYCQQYGSSPWTFGQGTKVDIK
0.28

Record request: Kd value, item ADI-19001 (antibody, V domains shown, full-length IgG; also called Antibody Number 349) VH: EVQLVESGGGLVKPGRSLRLSCTASGFNFGDYAMSWFRQAPGKGLEWVGFIRSKTYRETREYAASVKGRFTMSRDDFNRIAYLQMNSLKTEDTAMYYCTRQDDFWSGHPYYFEYWGQGTLVTVSS VL: QPVLTQPPSASGSPGQSVTISCTGTNSDVGSYNYVSWYQHHPGKAPKLIIYDVAKRPSGVPDRFSGSKSGNTASLTVSGLQAEDEADYYCSSYAGSNDLGVFGTGTKLTVL
0.149
